TARGET_OR_TEST_SYSTEM: T1, Human CD24 (human, UniProt P25063 27-59, limits assumed)
T1 chain (looked up): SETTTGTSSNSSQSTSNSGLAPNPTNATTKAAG
PROTOCOL_TEXT: SPR affinity ranking, 1:1 binding, analyte conc. 19.71 nM
EXPERIMENTAL_ENDPOINT: kon (M⁻¹ s⁻¹)
Please respond with the number in M⁻¹ s⁻¹ and leave the unit unwritten.

Here is how some binders turned out for kon.
I am curious: what kon value has been reported for Antibody No 18, lead clone of 4451H (HC N35G, T59Y; LC T97I) (antibody, V domains shown) VH: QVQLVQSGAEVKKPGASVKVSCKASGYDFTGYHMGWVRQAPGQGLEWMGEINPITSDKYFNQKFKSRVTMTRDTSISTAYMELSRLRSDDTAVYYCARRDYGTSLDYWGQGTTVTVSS VL: DIQLTQSPSFLSASVGDRVTITCRASKSISKYLAWYQQKPGKAPKLLIYAGSTLHSGIPSRFRGSGSGTEFTLTISSLQPEDFATYYCQQHNEYPIIFGQGTKLEIK ?
1.7e+06

Also Antibody No 10, lead clone of 4451H (HC T59Y; LC L33G, T97I) (antibody, V domains shown) VH: QVQLVQSGAEVKKPGASVKVSCKASGYDFTGYHMNWVRQAPGQGLEWMGEINPITSDKYFNQKFKSRVTMTRDTSISTAYMELSRLRSDDTAVYYCARRDYGTSLDYWGQGTTVTVSS VL: DIQLTQSPSFLSASVGDRVTITCRASKSISKYGAWYQQKPGKAPKLLIYAGSTLHSGIPSRFRGSGSGTEFTLTISSLQPEDFATYYCQQHNEYPIIFGQGTKLEIK ?
2.01e+06

Also Antibody No 4, lead clone of 4451H (HC N35G; LC K27A) (antibody, V domains shown) VH: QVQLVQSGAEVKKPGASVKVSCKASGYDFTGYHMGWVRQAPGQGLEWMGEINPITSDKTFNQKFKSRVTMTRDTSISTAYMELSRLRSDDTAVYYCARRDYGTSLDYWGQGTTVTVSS VL: DIQLTQSPSFLSASVGDRVTITCRASASISKYLAWYQQKPGKAPKLLIYAGSTLHSGIPSRFRGSGSGTEFTLTISSLQPEDFATYYCQQHNEYPITFGQGTKLEIK ?
1.19e+06

---
I am curious: what kon value has been reported for Antibody No 6, lead clone of 4451H (HC N35G; LC L33G) (antibody, V domains shown) VH: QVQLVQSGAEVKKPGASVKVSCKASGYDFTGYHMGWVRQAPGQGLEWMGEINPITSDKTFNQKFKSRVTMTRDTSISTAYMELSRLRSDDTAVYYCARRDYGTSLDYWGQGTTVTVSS VL: DIQLTQSPSFLSASVGDRVTITCRASKSISKYGAWYQQKPGKAPKLLIYAGSTLHSGIPSRFRGSGSGTEFTLTISSLQPEDFATYYCQQHNEYPITFGQGTKLEIK ?
1.56e+06

Also Antibody No 16, lead clone of 4451H (HC N35G, T59Y; LC S30K) (antibody, V domains shown) VH: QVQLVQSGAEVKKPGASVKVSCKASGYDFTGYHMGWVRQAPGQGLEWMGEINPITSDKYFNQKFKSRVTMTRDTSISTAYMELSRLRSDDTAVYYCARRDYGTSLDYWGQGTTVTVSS VL: DIQLTQSPSFLSASVGDRVTITCRASKSIKKYLAWYQQKPGKAPKLLIYAGSTLHSGIPSRFRGSGSGTEFTLTISSLQPEDFATYYCQQHNEYPITFGQGTKLEIK ?
2.13e+06
